The values you see were collected from patent US11981731B2.

# test-description: RAD001 PK analysis in NSG mice with NALM6-luc tumors
# Type: in vivo
# setup-conditions: NSG, mouse, whole blood; 24 hours after dosing, 0.3 mg/kg oral, day 0 and day 14; read-out: RAD001 concentrations in the blood
readout-label: concentration at 24 h

smiles_str=CO[C@H]1C[C@@H]2CC[C@@H](C)[C@@](O)(O2)C(=O)C(=O)N2CCCC[C@H]2C(=O)O[C@H]([C@H](C)C[C@@H]2CC[C@@H](OCCO)[C@H](OC)C2)CC(=O)[C@H](C)/C=C(\C)[C@@H](O)[C@@H](OC)C(=O)[C@H](C)C[C@H](C)/C=C/C=C/C=C/1C reported="> 10 nM"
